Target: Insulin-like growth factor 1 receptor (Homo sapiens);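 also: values are mean percent inhibition of IGF1R kinase activity, from the GSK published kinase inhibitor set (PKIS) screening panel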
Settings: at 0.1 µM
VALUE KIND: inhibition (%)

[[record]]
input_smiles = "Cc1cc(O)cc(C)c1/C=C/c1cncc(C(N)=O)c1"
observed_measurement = 5.33

[[record]]
input_smiles = "CCN1CCC(C(=O)Nc2n[nH]c3nnc(-c4cccc(F)c4F)cc23)CC1"
observed_measurement = -0.72

[[record]]
input_smiles = "CN(c1ccc(NC(=O)NCCN2CCOCC2)cc1)c1ccnc(Nc2ccc(CS(C)(=O)=O)cc2)n1"
observed_measurement = 3.76

[[record]]
input_smiles = "NS(=O)(=O)c1ccc(N/N=C2\\C(=O)Nc3cccc(CCc4ccncc4)c32)cc1"
observed_measurement = 1.21

[[record]]
input_smiles = "CS(=O)(=O)CCNCc1ccc(-c2ccc3ncnc(Nc4ccc(OCc5cccc(C(F)(F)F)c5)cc4)c3c2)o1"
observed_measurement = 18.2

[[record]]
input_smiles = "COc1cc(Nc2ncc(-c3ccccc3)o2)cc(OC)c1"
observed_measurement = -0.03

[[record]]
input_smiles = "CCS(=O)(=O)c1ccc(OC)c(Nc2ncc(-c3cccc(F)c3)o2)c1"
observed_measurement = 5.72

[[record]]
input_smiles = "CS(=O)(=O)CCNCc1ccc(-c2ccc3ncnc(Nc4ccc(OCc5ccccc5)cc4)c3c2)o1"
observed_measurement = 1.22


###

Molecular target: Dual specificity protein kinase CLK3 (Homo sapiens) (UniProt P49761);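 also: each value is the mean inhibition of CLK3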
Sequence (P49761 whole entry, looked up): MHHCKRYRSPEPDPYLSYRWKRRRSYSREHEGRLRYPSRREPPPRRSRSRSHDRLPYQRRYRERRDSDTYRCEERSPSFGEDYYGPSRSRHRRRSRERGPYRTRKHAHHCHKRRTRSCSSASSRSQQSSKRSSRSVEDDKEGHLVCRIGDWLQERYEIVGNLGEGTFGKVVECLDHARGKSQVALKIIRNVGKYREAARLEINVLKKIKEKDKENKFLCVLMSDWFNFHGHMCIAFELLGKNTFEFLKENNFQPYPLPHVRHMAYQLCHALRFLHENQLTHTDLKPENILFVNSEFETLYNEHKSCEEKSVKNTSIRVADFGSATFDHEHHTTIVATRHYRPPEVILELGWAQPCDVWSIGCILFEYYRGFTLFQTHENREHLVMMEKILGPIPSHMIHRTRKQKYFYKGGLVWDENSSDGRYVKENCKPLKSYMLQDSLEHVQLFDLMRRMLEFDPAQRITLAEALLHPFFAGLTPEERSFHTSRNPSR
Details: at 1 µM
VALUE KIND: inhibition (%)

[[record]]
compound = "c1ccc(-c2n[nH]cc2-c2ccnc(-c3ccc(OCCn4ccnc4)cc3)c2)nc1"
observed_measurement = 0.82

[[record]]
compound = "COc1cc2c(cc1Nc1nc(Nc3cccc(F)c3C(N)=O)c3cc[nH]c3n1)N(C(=O)CN1CCN(C(C)C)CC1)CC2"
observed_measurement = 1.39

[[record]]
compound = "CC1=C(C(=O)Nc2ccc3[nH]nc(C)c3c2)C(c2ccc(C(F)(F)F)cc2)CC(=O)N1 (stereo not given)"
observed_measurement = 14.1

[[record]]
compound = "CNC(=O)c1cncc(/C=C/c2ccccc2C)c1"
observed_measurement = 2.09

[[record]]
compound = "CC(C)c1ccc(-c2cc(-c3c[nH]nc3-c3ccccn3)ccn2)cc1"
observed_measurement = 0.76


###

Molecular target: cAMP-dependent protein kinase catalytic subunit alpha (Homo sapiens) (UniProt P17612);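 also: mean percent inhibition of PKA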
Conditions: at 1 µM
VALUE KIND: inhibition (%)

[[record]]
input_smiles = "CS(=O)(=O)CCNCc1ccoc1-c1ccc2ncnc(Nc3ccc(OCc4ccccc4)cc3)c2c1"
tgt = "cAMP-dependent protein kinase catalytic subunit alpha (Homo sapiens) (UniProt P17612)"
value_kind = "inhibition"
observed_measurement = 1.02

[[record]]
input_smiles = "COc1cccc(Nc2nccc(-c3cnn4ncccc34)n2)c1"
tgt = "cAMP-dependent protein kinase catalytic subunit alpha (Homo sapiens) (UniProt P17612)"
value_kind = "inhibition"
observed_measurement = 6.04

[[record]]
input_smiles = "Cc1nnc(-c2cccc(-c3ccc(C(=O)NCC4CC4)cc3)c2)o1"
tgt = "cAMP-dependent protein kinase catalytic subunit alpha (Homo sapiens) (UniProt P17612)"
value_kind = "inhibition"
observed_measurement = 2.07

[[record]]
input_smiles = "c1cnn2ncc(-c3ccnc(NCCCN4CCOCC4)n3)c2c1"
tgt = "cAMP-dependent protein kinase catalytic subunit alpha (Homo sapiens) (UniProt P17612)"
value_kind = "inhibition"
observed_measurement = 5.3

[[record]]
input_smiles = "NC(=O)c1ccc2c(-c3ccnc(NCCCO)n3)c(-c3ccc(F)cc3)nn2c1"
tgt = "cAMP-dependent protein kinase catalytic subunit alpha (Homo sapiens) (UniProt P17612)"
value_kind = "inhibition"
observed_measurement = 2.01

[[record]]
input_smiles = "CNC(=O)c1sc(-n2cnc3cc(OC)c(OC)cc32)cc1OCc1ccccc1C(F)(F)F"
tgt = "cAMP-dependent protein kinase catalytic subunit alpha (Homo sapiens) (UniProt P17612)"
value_kind = "inhibition"
observed_measurement = 2.29

[[record]]
input_smiles = "CN(C)CCNC(=O)Nc1ccc(N(C)c2ccnc(Nc3ccc(CS(C)(=O)=O)cc3)n2)cc1"
tgt = "cAMP-dependent protein kinase catalytic subunit alpha (Homo sapiens) (UniProt P17612)"
value_kind = "inhibition"
observed_measurement = 5.69


Cited source for all entries: ChEMBL document CHEMBL1961873
